Experiment: binders of probe aFGF10 on microarray, primary screen, stem cell growth factor project, biochemical, small-molecule microarray, fluorescence 635/667 (AID 1071);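 note: score merges 667 nm spot intensity and signal to noise from triplicate slides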
Settings: higher = more signal
endpoint_name: composite z-score

C=C(C(=O)CC[C@H](OC(C)=O)c1cccc(OCCO)c1)C(C)C    -0.582
NC(=O)NCC#Cc1ccc2c(c1)[C@]1(C(=O)N2)[C@H](C(=O)Nc2nc3ccccc3s2)[C@H]2C(=O)O[C@H](c3ccccc3)[C@H](c3ccccc3)N2[C@@H]1c1ccc(O)cc1    0.604
CCCC=C(CCC)[C@@H](NP(=O)(c1ccccc1)c1ccccc1)c1ccc(C(F)(F)F)cc1    0.0842

## Input Need composite z-score, item COCCCNC(=O)[C@@H]1c2ccccc2C(=O)N(Cc2ccccc2C(F)(F)F)[C@H]1c1ccc(CO)cc1
## Output -0.445

Data provenance: PubChem BioAssay
